Each recorded value in this set is attributed to PubChem BioAssay (NCI).

Each entry below lists one item and its recorded TGI value.
Tested on: SF-268 CNS
Test: NCI tumour cell line growth inhibition, 48 h

* Cc1cc(CC(=O)NCCO)n(CCO)c(=O)c1 | > 100 µM

INPUT: Quote TGI reported for O=C(Oc1cccc(F)c1OC(=O)c1cccc(O)c1)c1cccc(O)c1 please.
OUTPUT: > 100 µM

INPUT: Quote TGI reported for O/N=C1/C(=C/c2ccc3c(c2)OCO3)CCCC1C(NO)c1ccc2c(c1)OCO2 (stereo not given) please.
OUTPUT: > 100 µM

INPUT: Quote TGI reported for C=CCOc1cc(NC(=S)c2ccoc2C)ccc1OC please.
OUTPUT: > 100 µM

INPUT: Quote TGI reported for COC(=O)[C@H](Cc1ccccc1)NP(=O)(OCCC#N)OCC1OC(n2cc(C)c(=O)[nH]c2=O)CC1N=[N+]=[N-] (stereo not given in full) please.
OUTPUT: > 100 µM
